- Tested on: Human recombinant MMP-13 (Homo sapiens)
- Construct: made in house; host or cells: baculovirus / insect cells
- Method notes: In vitro MMP inhibition analysis (fluorogenic peptide substrate cleavage), Ki
- Format: biochemical
- Test context: Table 1
Endpoint label: Ki (pM)

Below, each entry is followed by its recorded Ki result.
                                   compound                                tested_on  recorded_measurement
0  CC(C)(C)N1CCC(C(=O)NO)(S(=O)(=O)c2ccc(-c3ccc(CCCC(F)(F)F)cc3)cc2)CC1  Human recombinant MMP-13 (Homo sapiens)                   221
1  O=C(NO)C1(S(=O)(=O)c2ccc(-c3ccc(CCC(F)(F)C(F)(F)F)cn3)cc2)CCN(C2CC2)CC1  Human recombinant MMP-13 (Homo sapiens)                   120
2  COCCN1CCC(C(=O)NO)(S(=O)(=O)c2ccc(-c3ccc(CCC(F)(F)C(F)(F)F)cc3)cc2)CC1  Human recombinant MMP-13 (Homo sapiens)                   110

[P] O=C(NO)C1(S(=O)(=O)c2ccc(-c3ccc(CCCC(F)(F)F)cc3)cc2)CCN(C2CC2)CC1
[Q] O=C(NO)C1(S(=O)(=O)c2ccc(-c3ccc(CCCC(F)(F)F)cn3)cc2)CCN(C2CC2)CC1
Which value of Ki is numerically greater: that of P or that of Q ? Give the label of your selection.
P
(P: 130 pM, Q: 50 pM)

---

- Tested on: Human recombinant MMP-1 (Homo sapiens, UniProt P03956)
- Construct: made in house; host or cells: MMP-1-transfected HT-1080 cells (spent media)
- Sequence (P03956 100-469): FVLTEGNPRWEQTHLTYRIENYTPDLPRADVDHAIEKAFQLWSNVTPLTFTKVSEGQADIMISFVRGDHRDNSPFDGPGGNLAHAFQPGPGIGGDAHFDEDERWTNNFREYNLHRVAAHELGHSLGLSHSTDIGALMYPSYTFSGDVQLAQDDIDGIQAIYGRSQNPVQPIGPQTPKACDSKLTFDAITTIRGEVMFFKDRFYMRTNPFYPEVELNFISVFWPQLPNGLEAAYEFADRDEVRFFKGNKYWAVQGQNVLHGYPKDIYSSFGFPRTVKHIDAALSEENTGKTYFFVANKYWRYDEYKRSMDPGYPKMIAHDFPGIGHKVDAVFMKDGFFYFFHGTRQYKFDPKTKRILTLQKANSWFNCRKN
- Method notes: In vitro MMP inhibition analysis (fluorogenic peptide substrate cleavage), Ki
- Assay type: biochemical
- Test context: Table 2
Endpoint label: Ki (nM)

Below, each entry is followed by its recorded Ki result.
In [3]: df
Out[3]:
                              line_notation  endpoint_label  recorded_measurement
0  CCCCOc1ccc(-c2ccc(S(=O)(=O)C3(C(=O)NO)CCN(C4CC4)CC3)cc2)cc1              Ki                  2460
1  O=C(CCc1nccs1)c1ccc(-c2ccc(S(=O)(=O)C3(C(=O)NO)CCOCC3)cc2)cc1              Ki                   975
2  CCCCNC(=O)c1ccc(-c2ccc(S(=O)(=O)C3(C(=O)NO)CCOCC3)cc2)nc1              Ki                  1140
3  CCOc1ccc(-c2ccc(S(=O)(=O)C3(C(=O)NO)CCOCC3)cc2)cc1              Ki                   327
4  COCCO[C@H]1CC[C@](C(=O)NO)(S(=O)(=O)c2ccc(-c3cnc(CCC(F)(F)C(F)(F)F)cn3)cc2)CC1              Ki                  7020
5  CCCCCc1ccc(-c2ccc(S(=O)(=O)C3(C(=O)NO)CCOCC3)cc2)c(F)c1              Ki                  9030
6  O=C(c1ccc2cc(-c3ccc(S(=O)(=O)C4(C(=O)NO)CCOCC4)cc3)ccc2c1)N1CCOCC1              Ki                  1440
7  O=C(NO)C1(S(=O)(=O)c2ccc(-c3ccc(-c4ccccc4)cc3)cc2)CCOCC1              Ki                  6910
8  O=C(NO)C1(S(=O)(=O)c2ccc(-c3ccc(OCCCC(F)(F)F)cc3)cc2)CCOCC1              Ki                  1630
9  O=C(NO)C1(S(=O)(=O)c2ccc(-c3ccc(OCC(F)(F)C(F)(F)F)cc3)cc2)CCOCC1              Ki                  1020

[I] O=C(NO)C1(S(=O)(=O)c2ccc(-c3ccc(-n4ccnc4)cc3)cc2)CCOCC1
[II] CCc1ccc(-c2ccc(S(=O)(=O)C3(C(=O)NO)CCOCC3)cc2)cc1
Compare Ki: is it lower for I or for II ? Give the label of your selection.
II
